tested on: SF-268 CNS; assay: NCI tumour cell line growth inhibition, 48 h
assay.metric: TGI

Worked cases, answers included:
[[record]]
compound = "CC(=N\\N)/C(C)=N/N=C(C)/C(C)=N/N"
observed_value = "> 100 µM"

[[record]]
compound = "O=C(Nc1cc(C(F)(F)F)ccc1Cl)c1ccc(NC2=C(Cl)C(=O)N(Cc3ccccc3)C2=O)cc1"
observed_value = "> 100 µM"

[[record]]
compound = "CC1/C=C/[C@@]2(C)CCC(C(C)(C)O)C2C(O)C[C@](C)(O)/C=C/C1 (stereo partly specified)"
observed_value = "> 100 µM"

[[record]]
compound = "OCc1ccc(N2CCc3cccc(F)c3C2)cc1Cl"
observed_value = "> 89.4 µM"


Look up TGI for the entries below, preserving their order.
1. COc1ccc(OC)c(NC(=O)CCC/C(CC(=O)c2ccc(O)c(OC)c2)=N\Nc2nnc(C)n2N)c1
2. CCNc1cc(-c2cccc(OC(F)(F)F)c2)nc2ccc(N3CCCC3)cc12
3. COc1cc(C2SCCCCCCCCCCSC(c3ccc(O)c(OC)c3)SCCCCCCCCCCS2)ccc1O (stereo unspecified)
4. O=S(=O)(O)c1cc(N=Nc2c(O)ccc3ccccc23)ccc1/C=C/c1ccc(N=Nc2c(O)ccc3ccccc23)cc1S(=O)(=O)O
5. Cn1c2ccccc2c2c3c(c4c5ccccc5n(C)c4c21)C(=O)NC3=O
6. CCCNC(=O)C1C(=O)C(=O)N(CCC)C1=O (stereo unspecified)
7. CCN1CCC(O)(c2ccc(Oc3ccc(F)cc3)cc2)C(C(=O)c2ccc(Oc3ccc(F)cc3)cc2)C1 (stereo unspecified)

Given back:
> 100 µM
3.79 µM
> 100 µM
> 100 µM
> 100 µM
> 100 µM
34.9 µM

Look up TGI for the entries below, preserving their order.
1. FC(F)(c1ccc2ncccc2c1)c1nnc2ccc(-c3ccncc3)nn12
2. CC[C@H](Nc1ncnc2nc[nH]c12)c1nc2cccc(F)c2c(=O)n1-c1ccccc1
3. Cc1ccc(/C=N/n2c(-c3ccc(C)cc3)n[nH]c2=O)cc1

Given back:
["> 100 µM", "> 100 µM", "> 100 µM"]

Look up TGI for the entries below, preserving their order.
1. O=C(O)c1ccc(NCn2nc(-c3ccccc3O)oc2=S)cc1
2. CC1=Nc2c(ccc3c2C(=O)c2ccccc2C3=O)NC(c2cccc3c2CCC3)C1 (stereo unspecified)
3. Cc1ccc(NC(=O)CCc2nc(N)nc(N)c2-c2ccccc2)cc1C
4. O=S(=O)(NC1=NCCN1C(=S)SN1CCn2c1nsc2=S)c1cccc2ccccc12
5. C=CCn1c(C)nc2ccc(Nc3nc(Nc4ccc(F)cc4)nc4ccccc34)cc21

Given back:
> 100 µM
> 100 µM
> 100 µM
> 100 µM
27.8 µM

Look up TGI for the entries below, preserving their order.
1. Cc1nc(N)nc2c1CCC(O)S2 (stereo unspecified)
2. CCOc1ccc2[nH]c3c(C)c4ccncc4c(C)c3c2c1

Given back:
25.6 µM
2.71 µM

Source of measurements: PubChem BioAssay (NCI)
